Kindly state pKd for each of the entries shown.
Target: T1, cynomolgus PAI-1 (cynomolgus monkey (Macaca fascicularis), UniProt P05121 24-402 (human entry))
T1 construct: produced in-house in E. coli (non-glycosylated); active cyno PAI-1 in the assays; also called cyno PAI-1; cPAI-1
T1 sequence (P05121 other isoform, or with tags, fused parts or gaps limits assumed): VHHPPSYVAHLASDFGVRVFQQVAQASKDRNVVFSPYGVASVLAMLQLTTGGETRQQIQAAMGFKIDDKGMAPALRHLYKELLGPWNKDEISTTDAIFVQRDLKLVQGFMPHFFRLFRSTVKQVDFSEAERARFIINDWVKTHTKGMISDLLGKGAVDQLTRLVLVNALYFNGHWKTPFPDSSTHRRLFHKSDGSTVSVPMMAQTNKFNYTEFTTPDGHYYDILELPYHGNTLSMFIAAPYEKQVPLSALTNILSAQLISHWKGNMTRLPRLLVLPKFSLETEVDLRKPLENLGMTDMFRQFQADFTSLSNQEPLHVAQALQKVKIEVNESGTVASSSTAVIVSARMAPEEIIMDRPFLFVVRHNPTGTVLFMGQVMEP
Assay: Biacore, mAb on anti-human IgG Fc chip / cyno PAI-1, 1:1 model
Recall that pKd is obtained by taking minus log10 of the concentration measured in molar.

What does the data say about its pKd? Entry: A44-hv12 (antibody, V domains shown, humanized A44, HEK293; constant regions as for A44-hv1; also called LC4 x HC3; variant 12) VH: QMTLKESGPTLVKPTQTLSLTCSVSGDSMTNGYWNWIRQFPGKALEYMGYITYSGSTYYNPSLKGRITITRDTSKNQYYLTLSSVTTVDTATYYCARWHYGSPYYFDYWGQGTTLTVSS VL: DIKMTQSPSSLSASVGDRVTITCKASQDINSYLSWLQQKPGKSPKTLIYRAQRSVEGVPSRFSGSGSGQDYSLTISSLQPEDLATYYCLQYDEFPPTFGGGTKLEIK
10.61

What does the data say about its pKd? Entry: A44-hv13 (antibody, V domains shown, humanized A44, HEK293; constant regions as for A44-hv1; also called LC2 x HC5b; variant 13) VH: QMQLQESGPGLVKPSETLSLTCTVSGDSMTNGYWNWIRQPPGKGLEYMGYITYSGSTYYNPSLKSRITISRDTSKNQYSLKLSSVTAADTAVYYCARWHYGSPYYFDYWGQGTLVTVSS VL: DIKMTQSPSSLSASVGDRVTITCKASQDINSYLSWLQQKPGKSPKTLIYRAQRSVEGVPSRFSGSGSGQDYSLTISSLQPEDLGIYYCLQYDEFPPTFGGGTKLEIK
10.57

What does the data say about its pKd? Entry: A44-hv14 (antibody, V domains shown, humanized A44, HEK293; constant regions as for A44-hv1; also called LC4 x HC5b; variant 14) VH: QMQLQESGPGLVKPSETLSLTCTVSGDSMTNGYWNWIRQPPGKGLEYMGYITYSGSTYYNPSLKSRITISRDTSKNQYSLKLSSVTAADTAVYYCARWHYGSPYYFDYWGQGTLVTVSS VL: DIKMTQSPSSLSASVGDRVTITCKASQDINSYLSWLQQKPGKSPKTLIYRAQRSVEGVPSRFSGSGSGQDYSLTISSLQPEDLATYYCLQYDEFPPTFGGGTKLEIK
10.94

What does the data say about its pKd? Entry: A44-hv11 (antibody, V domains shown, humanized A44, HEK293; compared with a human IgG1 isotype control; constant regions as for A44-hv1; also called A44V11; A44v11) VH: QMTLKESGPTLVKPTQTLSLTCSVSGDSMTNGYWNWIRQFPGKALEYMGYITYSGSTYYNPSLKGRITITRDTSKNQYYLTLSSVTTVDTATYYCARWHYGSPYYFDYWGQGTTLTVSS VL: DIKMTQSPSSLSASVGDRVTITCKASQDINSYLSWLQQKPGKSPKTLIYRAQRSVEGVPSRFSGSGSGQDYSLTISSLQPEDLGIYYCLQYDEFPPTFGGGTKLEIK
10.52
